- Method description: Dissociation constant, pKa of the compound
- Format: physicochemical
Parameter: pKa
Enter a number only.

Query: # lookup: pKa of CC(C)CN(C(=O)c1cccc(Cl)c1Cl)[C@H]1CCNC1
Response: 10

---

- Assay system: Cytochrome P450 2C19 (Homo sapiens)
- Sequence (P33261 whole entry): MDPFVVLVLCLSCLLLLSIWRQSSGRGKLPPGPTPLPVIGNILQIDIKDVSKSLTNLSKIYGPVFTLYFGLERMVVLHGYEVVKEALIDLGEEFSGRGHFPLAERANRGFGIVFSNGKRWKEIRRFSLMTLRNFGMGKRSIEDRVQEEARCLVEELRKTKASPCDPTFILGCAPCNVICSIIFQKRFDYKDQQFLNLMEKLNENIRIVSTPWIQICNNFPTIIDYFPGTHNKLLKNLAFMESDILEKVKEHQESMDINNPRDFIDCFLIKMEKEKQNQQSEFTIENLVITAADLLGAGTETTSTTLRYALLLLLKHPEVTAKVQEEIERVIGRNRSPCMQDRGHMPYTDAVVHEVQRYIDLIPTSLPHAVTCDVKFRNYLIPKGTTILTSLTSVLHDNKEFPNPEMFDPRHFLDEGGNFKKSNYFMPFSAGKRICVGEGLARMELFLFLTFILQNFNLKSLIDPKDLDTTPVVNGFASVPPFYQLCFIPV
Parameter: IC50

Query: # lookup: IC50 of CC(C)CN(C(=O)c1cccc(Cl)c1Cl)[C@H]1CCNC1
Response: > 30 µM

---

- Method description: Apparent permeability from apical to basolateral side of human Caco-2 cells at 10 uM
- Type: ADME, cell-based
Parameter: Papp A→B at 10 µM (×10⁻⁶ cm/s)
Numbers only here, please. The scale is ×10⁻⁶ cm/s.

Query: # lookup: Papp A→B at 10 µM of CC(C)CN(C(=O)c1cccc(Cl)c1Cl)[C@H]1CCNC1
Response: 12

The reported numbers originate from ChEMBL document CHEMBL1154203.
